Data origin: patent US12319708B2

measured target: hPPARα (Homo sapiens, UniProt Q07869)
Sequence (Q07869 whole entry): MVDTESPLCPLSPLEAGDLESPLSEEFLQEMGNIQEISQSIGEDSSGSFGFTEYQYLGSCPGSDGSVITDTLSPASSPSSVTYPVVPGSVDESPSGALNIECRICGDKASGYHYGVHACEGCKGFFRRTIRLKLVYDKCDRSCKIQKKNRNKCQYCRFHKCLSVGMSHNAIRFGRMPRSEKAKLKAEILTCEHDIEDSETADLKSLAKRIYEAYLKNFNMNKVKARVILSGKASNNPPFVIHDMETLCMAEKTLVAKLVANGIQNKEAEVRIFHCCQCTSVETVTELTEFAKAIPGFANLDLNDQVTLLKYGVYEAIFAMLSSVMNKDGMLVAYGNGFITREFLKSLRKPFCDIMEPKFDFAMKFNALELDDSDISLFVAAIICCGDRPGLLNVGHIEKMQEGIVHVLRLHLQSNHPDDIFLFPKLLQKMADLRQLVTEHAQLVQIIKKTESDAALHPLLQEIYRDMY
test: PPARα luciferase cell reporter assay (Indigo Biosciences)
Format: cell-based
From the text: With the focused subset of analogs in-hand, our efforts shifted to the evaluation of these derivatives for PPARα agonism. Preliminary evaluation utilized a commercially available PPARα luciferase cell reporter assay (Indigo Biosciences). The cell-line employed is engineered to constitutively express high-levels of hPPARα. […] Luciferase activity is detected indirectly through quantification of oxyluciferin production.
measurement name: pEC50
Give bare numbers, as −log10 of the molar value.

Requested read-out: pEC50. Entry: O=C(O)c1cccc(NCc2ccc(OCc3ccc(F)cc3F)cc2)c1
6.40

* * *

measured target: hPPARα (Homo sapiens, UniProt Q07869)
test: PPARα luciferase cell reporter assay (Indigo Biosciences)
Type: cell-based
details: relative to GW590735
Consider the cut-off 2. If the recorded fold-signal: ratio of maximal signal strength to that obtained with GW590735 is strictly smaller, the label is y; if not, the label is n.

Look over these answered cases.
Cc1cc(CNc2cccc(C(=O)O)c2)ccc1OCc1cc(F)cc(F)c1 [25′] : y
O=C(O)c1cccc(NCc2ccc(OCc3ccc(F)cc3)c(Cl)c2)c1 [27′] : y
O=C(O)c1cccc(NCc2ccc(OCc3ccc(F)cc3)c(F)c2)c1 [26′] : y
Cc1cc(CN(C)c2cccc(C(=O)O)c2)ccc1OCc1ccc(F)cc1 [30′] : n

Now look at this entry.
Here's an entry: O=C(O)c1cc(F)cc(NCc2ccc(OCc3ccc(F)cc3)c(Cl)c2)c1 [32′] . Is its fold-signal: ratio of maximal signal strength to that obtained with GW590735 below 2?
y
